- TEST_TARGET: T1, human MSR1 extracellular domain expressed with a N-terminal nonahistidine tag (His9-hMSR1); R&D Systems, Cat … (human, UniProt P21757 77-451)
- T1 construct: extracellular domain; also called His-hMSR1; 9xHis-hMSR1; not shown: N-terminal nonahistidine tag
- T1 sequence (looked up): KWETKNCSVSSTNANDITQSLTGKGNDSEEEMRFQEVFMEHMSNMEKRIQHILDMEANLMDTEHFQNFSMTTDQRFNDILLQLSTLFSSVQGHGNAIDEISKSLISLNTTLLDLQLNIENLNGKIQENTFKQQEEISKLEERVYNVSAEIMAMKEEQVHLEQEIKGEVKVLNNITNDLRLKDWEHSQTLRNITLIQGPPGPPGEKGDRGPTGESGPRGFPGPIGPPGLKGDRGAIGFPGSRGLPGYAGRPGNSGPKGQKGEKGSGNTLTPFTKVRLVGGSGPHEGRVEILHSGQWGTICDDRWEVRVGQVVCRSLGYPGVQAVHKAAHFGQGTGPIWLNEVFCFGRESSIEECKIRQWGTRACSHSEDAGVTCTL
- EXPERIMENT_NOTES: SPR Biacore, 25 C, antibody captured; kd fixed, no dissociation seen
REPORTED_METRIC: Kd

Check the records and state Kd for H1H27732P-N297Q (antibody, V domains shown, Human IgG1 Fc with N297Q point mutation) VH: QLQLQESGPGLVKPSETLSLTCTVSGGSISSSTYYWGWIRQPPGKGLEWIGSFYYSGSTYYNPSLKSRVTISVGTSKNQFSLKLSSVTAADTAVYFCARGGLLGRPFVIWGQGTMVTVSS VL: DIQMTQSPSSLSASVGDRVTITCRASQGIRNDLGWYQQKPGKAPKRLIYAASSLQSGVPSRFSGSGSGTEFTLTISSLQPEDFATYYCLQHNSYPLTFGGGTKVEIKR
≤ 0.0801 nM
